# Tested on: A549/ATCC NSCLC
# protocol details: NCI-60 one-dose screen, 48 h
# condition summary: 10 µM unless noted
Compounds without any hit were thinned out: in the full panel of roughly 83,000, 20% have a hit. The source made the active and inactive calls. The calls were made as follows: active = growth percent below 10; inactive = the rest.
One label from this list, please: active, inactive

compound | category
Cc1oc2c(C(=O)N/N=C\c3ccc(O)cc3O)c[nH]c2c1C | inactive
COC(=O)CC[C@@H](C)[C@H]1CC[C@H]2C3CC[C@@H]4C[C@@H]5CC[C@]4(C)[C@@]3(O5)[C@H](Br)[C@@H](Br)[C@]12C (some centres not stated) | inactive
CNC(=O)c1cnc(C)nc1-c1cc(C(C)(C)C)c(O)c(C(C)(C)C)c1 | inactive
COc1cc(Nc2ncc3c(n2)-c2ccc(Cl)cc2C(c2c(F)cccc2OC)=NC3)ccc1C(=O)O | inactive
Cc1c(N)ccc(-c2ccc(N)c(C)c2S(=O)(=O)O)c1S(=O)(=O)O | inactive

Q: Please indicate how the test categorized O=C(NC1CCNCC1)c1[nH]ncc1NC(=O)c1c(Cl)cccc1Cl .
A: active

Q: # repeat for CC(C)[C@@H](C)/C=C/[C@@H](C)[C@H]1CCC2=C3C=CC4=CC(=O)CC[C@]4(C)[C@H]3CC[C@@]21C
A: inactive
